Value source: patent US20200338045A1

Assay: Phase 1 multiple ascending dose (MAD) plasma pharmacokinetics
Format: in vivo, human
Conditions: human, plasma, oral, 560 mg, 560 mg QD, Day 3, age up to 64 years (n = 8); read-out: AUC0-24h (mean)
RESULT_TYPE: AUC(0-t)

Which AUC(0-t) is listed for CC(C)(C)Oc1cc(CCC(C)(C)N2Cc3ccc(S(C)(=O)=O)cc3C2)ccc1O ?
1940 ng·h/mL

====

Assay: Phase 1 single ascending dose (SAD)/food-effect plasma pharmacokinetics
Assay type: in vivo, human
Details: human, plasma, oral, 450 mg, single 450 mg, fasted (n = 6); read-out: t1/2 (mean) (converted)
RESULT_TYPE: half-life (h)
Express it in h; write the number only.

Which half-life is listed for CC(C)(C)Oc1cc(CCC(C)(C)N2Cc3ccc(S(C)(=O)=O)cc3C2)ccc1O ?
12.2

====

Test: Phase 1 single ascending dose (SAD)/food-effect plasma pharmacokinetics
Format: in vivo, human
Details: human, plasma, oral, 450 mg, single 450 mg, fasted (n = 6); read-out: AUC0-inf (mean)
RESULT_TYPE: AUC(0-inf) (µg·h/mL)
Express it in µg·h/mL; write the number only.

Which AUC(0-inf) is listed for CC(C)(C)Oc1cc(CCC(C)(C)N2Cc3ccc(S(C)(=O)=O)cc3C2)ccc1O ?
1.75

====

Test: Phase 1 single ascending dose (SAD)/food-effect plasma pharmacokinetics
Assay type: in vivo, human
Settings: human, plasma, oral, 30 mg, single 30 mg, fasted (n = 6); read-out: t1/2 (mean) (converted)
RESULT_TYPE: half-life (h)
Express it in h; write the number only.

Which half-life is listed for CC(C)(C)Oc1cc(CCC(C)(C)N2Cc3ccc(S(C)(=O)=O)cc3C2)ccc1O [CT1812] ?
14

====

Test: Phase 1 multiple ascending dose (MAD) plasma pharmacokinetics
Assay type: in vivo, human
Conditions: human, plasma, oral, 560 mg, 560 mg QD, Day 14, age up to 64 years (n = 8); read-out: t1/2 (mean) (converted)
RESULT_TYPE: half-life (h)
Express it in h; write the number only.

Which half-life is listed for CC(C)(C)Oc1cc(CCC(C)(C)N2Cc3ccc(S(C)(=O)=O)cc3C2)ccc1O [CT1812] ?
12.3

====

Assay: Phase 1 multiple ascending dose (MAD) plasma pharmacokinetics
Type: in vivo, human
Conditions: human, plasma, oral, 840 mg, 840 mg QD, Day 14, age up to 64 years; n = 6; read-out: t1/2 (mean) (converted)
RESULT_TYPE: half-life (h)
Express it in h; write the number only.

Which half-life is listed for CC(C)(C)Oc1cc(CCC(C)(C)N2Cc3ccc(S(C)(=O)=O)cc3C2)ccc1O ?
8.93

====

Assay: Phase 1 single ascending dose (SAD)/food-effect plasma pharmacokinetics
Format: in vivo, human
Conditions: human, plasma, oral, 90 mg, single 90 mg, fasted (n = 6); read-out: Tmax (median)
Protocol: Part A was a single ascending dose cohort study in which healthy, young subjects (less than 65 years old) received one dose of study drug in the morning after an overnight fast. […] This was assessed by analysis of variance (ANOVA) of log-transformed Cmax, AUC0-24, AUC0-48, and/or AUC0-inf, using a model with factors for treatment (fed status or age [young vs. elderly] status) and subject within sequence. […]
RESULT_TYPE: Tmax (h)
Express it in h; write the number only.

Which Tmax is listed for CC(C)(C)Oc1cc(CCC(C)(C)N2Cc3ccc(S(C)(=O)=O)cc3C2)ccc1O ?
1.25
